test system: Saccharomyces cerevisiae; test: protein stability index of tFT-peptide fusion (C-terminal peptide) (PSI (0-1 scale)); higher = more stable (slower turnover); conditions: genetic background: cdc53-1; temperature: 37 C;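 note: PSI is a weighted mean of sequencing reads over stability bins, variants kept only with over 10 reads, mCherry proximal and sfGFP distal, peptide attached via GGGS linker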
property-measured: protein stability index
Form rule: numeric answer, no unit written next to it.

{"sequence-data": "LHIHGAGIVCAG", "property-measured": "protein stability index", "quantitative-result": 0.584}
{"sequence-data": "LFFFVFFVLFSV", "property-measured": "protein stability index", "quantitative-result": 0.204}
{"sequence-data": "FVLLTFLFFWQF", "property-measured": "protein stability index", "quantitative-result": 0.441}
{"sequence-data": "PPSPAPLPDSLP", "property-measured": "protein stability index", "quantitative-result": 0.7}
{"sequence-data": "WCGLFCRSVFVV", "property-measured": "protein stability index", "quantitative-result": 0.363}
{"sequence-data": "VFLCVRLGFIFL", "property-measured": "protein stability index", "quantitative-result": 0.486}

Field protein stability index (entry `LFLSAFFYLLVW` ) reads 0.223

Field protein stability index (entry `DLRRYRTLIPCK` ) reads 0.425

Field protein stability index (entry `SPSTPQALSNFS` ) reads 0.748

Field protein stability index (entry `FCFLLLVSFFFV` ) reads 0.407

Field protein stability index (entry `LVSCGNFLVFCF` ) reads 0.311

Field protein stability index (entry `STLPACNCLKLL` ) reads 0.761

Field protein stability index (entry `VACTCILVALVV` ) reads 0.164

Field protein stability index (entry `WWADRLVGVCIV` ) reads 0.539

Field protein stability index (entry `CFGSALLKCWLC` ) reads 0.726

Field protein stability index (entry `TGPLVHLLCCCV` ) reads 0.417

Field protein stability index (entry `LPTVSRPGALIC` ) reads 0.689

Field protein stability index (entry `PISNMSIILLFL` ) reads 0.595
